# MEASUREMENT TARGET: GABA-A receptor; anion channel (Rattus norvegicus) (UniProt O09028+P15431+P18506+P18508+P19969+P20236+P23574+P23576+P28471+P28473+P30191+P62813+P63079+P63138+Q91ZM7+Q9ES14)
# EXPERIMENT NOTES: Minimum effective dose required for anticonflict in rat intraperitoneally
# Format: functional
ASSAY READOUT: MED (mg/kg)
Give the value, in units of mg/kg, as a plain number.

// known answers, use as guide
# STRUCTURE AS SMILES, ASSAY READOUT, REPORTED VALUE
data = [
    ("CN(C)CCCN1C2=C(C(=O)Nc3ccccc3F)C(=O)CCN2c2ccc(F)cc21", "MED", 10),
    ("NCCN1C2=C(C(=O)Nc3ccccc3F)C(=O)CCN2c2ccc(F)cc21", "MED", 10),
    ("CCOCN1C2=C(C(=O)Nc3ccc(OC)cc3F)C(=O)CCN2c2ccc(F)cc21", "MED", 0.1),
    ("CCOCN1C2=C(C(=O)Nc3ccc(F)cc3F)C(=O)CCN2c2ccc(F)cc21", "MED", 0.1),
]

MED lookup needed for CCOCN1C2=C(C(=O)Nc3ccccc3F)C(=O)CCN2c2ccc(F)cc21 , thanks. 10
